Entry source: patent US20140081017A1

Test system: C. glabrata
Test: Checkerboard FIC assay in combination with fluconazole (MIC alone and in combination, FICI)
Type: cell-based, Candida glabrata
Details: C. glabrata; FICI using a fluconazole MIC of 128 μg/mL
Could you please report measured FICI of combination resulting in fluconazole MIC of: 4 ug/mL (value in parenthesis) for the items listed next?
Reply with just the number.

Input: May I ask what FICI of combination resulting in fluconazole MIC of: 4 ug/mL (value in parenthesis) has been recorded for O=C(Cc1ccc(CCCCc2ccc(NC(=O)CO)cc2)cc1)NO ?
Output: 0.281

Input: Same read-out for O=C(Cc1ccc(CCCCc2cccc(NC(=O)CO)c2)cc1)NO ?
Output: 0.281

Input: Another molecule: O=C(Cc1ccc(CCC(F)Cc2ccccc2)cc1)NO (centres unmarked)
Output: 0.531

Input: Proceed to CC(C(=O)NO)c1ccc(CCCCc2ccccc2)cc1 (centres unmarked)
Output: 0.271

Input: And for Nc1ccccc1CCCCc1ccc(CC(=O)NO)cc1 ?
Output: 0.281

Input: Another molecule: CC(=O)Nc1ccc(CCCCc2ccc(CC(=O)NO)cc2)cc1
Output: 0.156

Input: What do you get for O=C(Cc1ccc(CCC(O)Cc2ccccc2)cc1)NO (centres unmarked) ?
Output: 0.531

Input: Now consider O=C(Cc1ccc(CCCC(F)c2ccccc2)cc1)NO (centres unmarked) .
Output: 0.156

Input: Follow-up item: COCCOCCOCCNS(=O)(=O)c1ccc(CCCCc2ccc(CC(=O)NO)cc2)cc1
Output: 0.156

Input: Also CN(C)CCSCC(=O)Nc1cccc(CCCCc2ccc(CC(=O)NO)cc2)c1 ?
Output: 0.156

Input: Please give the result for Cn1cnc(CNC(=O)c2ccc(CCCCc3ccc(CC(=O)NO)cc3)cc2)c1 too.
Output: 0.156

Input: Likewise for O=C(Cc1ccc(CCCCC2CCCCC2)cc1)NO ?
Output: 0.511

Input: Please answer likewise for O=C(Cc1ccc(CCCCc2cccc(NC(=O)NCCN3CCOCC3)c2)cc1)NO
Output: 0.156

Input: Here is the next molecule: Nc1cccc(CCCCc2ccc(CC(=O)NO)cc2)c1
Output: 0.281

Input: Try the molecule O=C(Cc1ccc(CCCC(F)(F)c2ccccc2)cc1)NO
Output: 0.531

Input: CN(C)CCSCC(=O)Nc1ccc(CCCCc2ccc(CC(=O)NO)cc2)cc1 ?
Output: 0.281

Input: Now try CN1CCN(CCNC(=O)Nc2cccc(CCCCc3ccc(CC(=O)NO)cc3)c2)CC1 .
Output: 0.156

Input: Then COCCOCCOCCNC(=O)c1ccc(CCCCc2ccc(CC(=O)NO)cc2)cc1 ?
Output: 0.156

Input: Try O=C(Cc1ccc(CCCCc2cccc(NS(=O)(=O)CCN3CCOCC3)c2)cc1)NO next.
Output: 0.156

Input: Same read-out for CN1CCC(C(=O)Nc2cccc(CCCCc3ccc(CC(=O)NO)cc3)c2)CC1 ?
Output: 0.156

Input: Now the same for CC(=O)Nc1cccc(CCCCc2ccc(CC(=O)NO)cc2)c1
Output: 0.281

Input: Entry Cn1ccc2cc(CCCCc3ccc(CC(=O)NO)cc3)ccc21 please
Output: 0.151

Input: Next entry: O=C(Cc1ccc(CCCCc2ccccc2NC(=O)CO)cc1)NO
Output: 0.531

Input: Please answer likewise for O=C(Cc1ccc(CCCCc2ccc(-c3ccccc3)cc2)cc1)NO
Output: 0.061

Input: Same thing, different molecule: O=C(Cc1ccc(CCCC(O)c2ccccc2)cc1)NO (centres unmarked)
Output: 0.281

Input: Lookup CC(C)(C(=O)NO)c1ccc(CCCCc2ccccc2)cc1
Output: 0.531

Input: Same again, this time with O=C(Cc1ccc(CCCCc2ccc(C(=O)N3CCN(CCn4ccnc4)CC3)cc2)cc1)NO
Output: 0.156

Input: What would you report for O=C(Cc1ccc(CCCCc2ccc(C(=O)N3CCOCCOCCOCCOCCOCC3)cc2)cc1)NO ?
Output: 0.156

Input: Next up: CN1CCC(C(=O)Nc2ccc(CCCCc3ccc(CC(=O)NO)cc3)cc2)CC1.Cl
Output: 0.156

Input: Also, Nc1ccc(CCCCc2ccc(CC(=O)NO)cc2)cc1 please.
Output: 0.281

Input: Now the same for COc1ccc(CCCCc2ccc(CC(=O)NO)cc2)cc1OC
Output: 0.281

Input: One more molecule: COC(=O)Nc1ccc(CCCCc2ccc(CC(=O)NO)cc2)cc1
Output: 0.094

Input: Also, O=C(Cc1ccc(CCCCc2ccc(O)cc2)cc1)NO please.
Output: 0.281

Input: Note, next up: O=C(Cc1ccc(CCCCc2ccc(C(=O)NCCCn3ccnc3)cc2)cc1)NO
Output: 0.156

Input: Also need COCCOCCOCCOCCOCCOc1ccc(CCCCc2ccc(CC(=O)NO)cc2)cc1 , thanks.
Output: 0.281
